Reference for the values: PubChem BioAssay (NCI)

- Tested on: SK-MEL-2 melanoma
- experiment: NCI-60 one-dose screen, 48 h (100 = growth as untreated, 0 = no growth, -100 = all killed)
- condition_parameters: 10 µM
This is part of a sample that, as a whole, favours compounds with a hit. Of some 83,000 tested, about 20% had one in any assay.

{"compound": "O=C1Nc2cc(Cl)ccc2/C1=C/c1cccc(OCc2ccc(Br)cc2F)c1", "growth (%)": -20}
{"compound": "Cc1ccc([N+](=O)[O-])c(C(=O)Nc2ccc(-c3ccc4c(c3)NC(=O)/C4=C\\c3ccc[nH]3)cc2)c1", "growth (%)": 75.5}
{"compound": "CSc1nc(-c2cccc(C)c2)c2cc(-c3ccccc3)n(C)c2n1", "growth (%)": 12.2}
{"compound": "CC(=O)Nc1ccc(-c2cn(-c3cccc(C(=O)Nc4cc(C(F)(F)F)cc(C(F)(F)F)c4)c3)nn2)cn1", "growth (%)": -38.6}
{"compound": "CCN(CC)CCOc1ccc(C(=C(C)c2ccccc2)c2ccc(OCCN(CC)CC)cc2)cc1", "growth (%)": -75.8}
{"compound": "COc1cc(Cn2c(C(F)(F)F)cc3c(Cl)ncnc32)ccn1", "growth (%)": -81.7}
{"compound": "O=c1cc(-c2ccccc2)oc2cc(OCCCCNCc3ccccc3)cc(O)c12", "growth (%)": 53.1}
{"compound": "O=C(c1ccc(O)cc1)C1[C@H](c2ccc(Br)cc2)[C@@H](c2ccccc2)NC12C(=O)Nc1ccc(Br)cc12 (stereo partly drawn)", "growth (%)": -21.1}
{"compound": "O=C(CSc1nnc(-c2c[nH]c3ccccc23)n1-c1ccccc1)c1ccc(Cl)cc1", "growth (%)": 33.7}
{"compound": "Clc1cccc(N/N=C/c2c[nH]c3ccccc23)n1", "growth (%)": 73.3}
{"compound": "CC1(C)CC[C@]2(C(=O)NCCCNCCCCNCCCN)CC[C@]3(C)C(=CC[C@@H]4[C@@]5(C)Cc6c([nH]c7ccccc67)C(C)(C)[C@@H]5CC[C@]43C)[C@H]2C1", "growth (%)": 101}
{"compound": "CCCCSc1nc(Nc2ccc(/C(C)=N/NC(N)=S)cc2)c(C#N)c(-c2ccc(F)cc2)n1", "growth (%)": 72.9}
{"compound": "CN(C)c1nc(NCCNS(=O)(=O)c2ccc(C(=O)/C=C/c3ccccc3)cc2)nc(Nc2ccc(F)cc2)n1", "growth (%)": 81}
{"compound": "O=C(CS(=O)(=O)c1oc(-c2ccc(Cl)cc2)nc1S(=O)(=O)c1ccc(Cl)cc1)N1CCOCC1", "growth (%)": 83.9}
{"compound": "CCCCOc1ccc(Nc2nc3ccccc3nc2Nc2ccc(OCCCC)cc2)cc1", "growth (%)": 99.5}
{"compound": "CN1CCN(c2ccc(Nc3nc(N4CCN(S(=O)(=O)c5ccc(Cl)cc5)CC4)c4sccc4n3)cc2)CC1", "growth (%)": 79.4}
{"compound": "CC1(c2ccccc2)NC(=O)N(CC(=O)Nc2ccc(C(=O)/C=C/c3ccc(Cl)cc3)cc2)C1=O (stereo not drawn)", "growth (%)": 34}
{"compound": "COc1ccc2[nH]c(=O)c(CSc3ccc(Nc4nccc(-c5ccc(Cl)cc5)n4)cc3)cc2c1", "growth (%)": 94.3}

====

As shown below, each of these compounds has a reported growth value.
- Test system: ACHN renal
- experiment: NCI-60 one-dose screen, 48 h (100 = growth as untreated, 0 = no growth, -100 = all killed)
- condition_parameters: 10 µM
The panel holds about 83,000 compounds, 20% with a hit somewhere; the sample as a whole holds those more often.
quantity_name: growth (%)

{"compound": "O=C(N/C(=C1/OCCN1Cc1ccccc1)[P+](c1ccccc1)(c1ccccc1)c1ccccc1)c1ccccc1", "output_unit": "%", "reported_measurement": 82.6}
{"compound": "O=c1[nH]c2ccccc2cc1CSc1ccc(Nc2nccc(-c3ccc4ccccc4c3)n2)cc1", "output_unit": "%", "reported_measurement": 79.5}
{"compound": "O=C(CNc1nc(-c2ccccc2)cs1)Nc1ccc([N+](=O)[O-])cc1", "output_unit": "%", "reported_measurement": -15.8}
{"compound": "O=c1c2ccccc2nc(COc2ccccc2)n1/N=C/c1ccc(N2CCCC2)cc1", "output_unit": "%", "reported_measurement": 92.3}
{"compound": "COc1ccc(-c2nc(S(=O)(=O)c3ccc(C)cc3)c(S(C)(=O)=O)o2)cc1", "output_unit": "%", "reported_measurement": -100}
{"compound": "COc1ccc(C(=O)/C=C/c2cc(F)cc(C(F)(F)F)c2)cc1S(N)(=O)=O", "output_unit": "%", "reported_measurement": -100}
{"compound": "O=C(Nc1cc(Cl)cc(Cl)c1)Nc1cc(Cl)cc(Cl)c1", "output_unit": "%", "reported_measurement": -19.4}
{"compound": "CN1CCCN(Cc2ccc(C(=O)Nc3cccc(Nc4ccc5c(O)cccc5n4)c3)cc2C(F)(F)F)CC1", "output_unit": "%", "reported_measurement": -74.7}
{"compound": "CN1CCCN(Cc2ccc(C(=O)Nc3cccc(Nc4ccc5cc(O)ccc5n4)c3)cc2C(F)(F)F)CC1", "output_unit": "%", "reported_measurement": 86.4}
{"compound": "CCCCSc1nc(Nc2ccc(/C(C)=N/NC(N)=S)cc2)c(C#N)c(-c2ccccc2)n1", "output_unit": "%", "reported_measurement": 14.3}
{"compound": "O=C(O)CCCCCCCCCCN1C(=O)/C(=C/c2cnc(-c3ccccc3)s2)SC1=S", "output_unit": "%", "reported_measurement": 70.3}
{"compound": "COc1ccc(CCN2C(=O)/C(=C/c3csc(C#N)n3)SC2=S)cc1OC", "output_unit": "%", "reported_measurement": 8.31}
{"compound": "CC1=N/C(=C\\c2ccc(N(C)C)cc2)C(=O)N1CCc1ccc(S(N)(=O)=O)cc1", "output_unit": "%", "reported_measurement": 105}
{"compound": "C[C@H]1[C@H](C)CC[C@]2(COC(=O)CCC(=O)NCC#CCN3CCNCC3)CC[C@]3(C)C(=CC[C@@H]4[C@@]5(C)CCCNC(C)(C)[C@@H]5CC[C@]43C)[C@H]12", "output_unit": "%", "reported_measurement": 59.4}
{"compound": "COc1ccc(C=CC(=O)c2ccc(-n3c(C)nc4c(cnn4-c4ccccc4)c3=O)cc2)cc1", "output_unit": "%", "reported_measurement": 71}
{"compound": "CCCn1c(=O)c2[nH]c(-c3ccc(OCc4nc5ccccc5[nH]4)cc3)nc2n(CCC)c1=O", "output_unit": "%", "reported_measurement": 32.4}
{"compound": "N#Cc1ccc(-c2nn(-c3ccc(C(=O)O)cc3)cc2CNc2ccc(Oc3ccccc3)cc2)cc1", "output_unit": "%", "reported_measurement": 47.3}
{"compound": "COc1ccc(N2N=C(c3ccc4c(c3)OCCO4)CC2c2cccc(NC(=O)CCCNS(=O)(=O)c3ccc(F)cc3)c2)cc1 (stereo not drawn)", "output_unit": "%", "reported_measurement": 70.7}

====

- Tested on: NCI-H322M lung
- experiment: NCI-60 one-dose screen, 48 h (100 = growth as untreated, 0 = no growth, -100 = all killed)
- condition_parameters: 10 µM
- Procedure: Growth inhibition of the NCI-H322M human Non-Small Cell Lung tumor cell line is measured as a screen for anti-cancer activity. Cells are grown in 96 well plates and exposed to the test compound for 48 hours. Compounds are tested at a single concentration, which is 10^-5 M for most compounds. The reported endpoint is percent growth (GI% or GIPRCNT), where numbers from 0 - 100% represent growth inhibition, and numbers from -100% - 0 represent cell death. […]
About 83,000 compounds went through this panel and 20% of them were active in at least one assay; those are over-represented in the sample as a whole.
Range-based classes on measured growth: low end = under 20%, middle = from 20% up to 90%, high end = 90% and over

{"molecule": "O=C1Nc2cc(Cl)ccc2/C1=C/c1ccc(OCc2ccc(Br)cc2F)cc1", "assigned_category": "low end"}
{"molecule": "CN1CCN(Cc2ccc(NC(=O)c3cncc(C#Cc4cnc5ccc(N[C@@H]6CCOC6)nn45)c3)cc2C(F)(F)F)CC1", "assigned_category": "low end"}
{"molecule": "COc1cnc2c(c1)C(=O)c1c-2n(CCCNC(C)C)c(=O)c2cc(OC)c(OC)cc12", "assigned_category": "middle"}
{"molecule": "CCOC(=O)C1=C(N)N(c2ccccc2)C2=C(C(=O)CC(C)(C)C2)C1c1ccccc1OC (centres undefined)", "assigned_category": "high end"}
{"molecule": "COc1cccc(-c2ccnc(/N=C(\\N)Nc3ccc(S(=O)(=O)Nc4nc(C)cc(C)n4)cc3)n2)c1", "assigned_category": "high end"}
{"molecule": "CCOC(=O)C1=C(N)N(c2ccc(C)cc2)C2=C(C(=O)CC(C)(C)C2)C1c1ccccc1OC (centres undefined)", "assigned_category": "high end"}
{"molecule": "COc1cc(/C=C/C(=O)c2ccc(C(F)(F)F)cc2)ccc1Oc1nc(Nc2ccc(F)cc2)nc(N(C)C)n1", "assigned_category": "middle"}
